- System: M. mycetomatis strain mm55
- STATED CONDITIONS: primary screen, metabolic activity vs growth control; 96 h, 2 µM; inhibitor
Out of some 5,300 compounds screened, about 130 (2.5%) showed an effect of 50% or more. Shown is part of a subset that was picked to be rich in strong results. Square brackets hold non-standard residues; d marks the D form. Peptide text beside a SMILES is read from it. dTrp(2-Me) = Cc1[nH]c2ccccc2c1C[C@@H](N)C(=O)O
Field 'label' (enum: condition met / condition not met). Set to condition met when % viability is strictly under 70%; else condition not met.

Recorded results for 3 molecules are shown here.
1. COC(=O)N[C@H](C(=O)N1CC2(CC2)C[C@H]1c1ncc(-c2ccc3c(c2)C(F)(F)c2cc(-c4ccc5nc([C@@H]6[C@H]7CC[C@H](C7)N6C(=O)[C@@H](NC(=O)OC)C(C)C)[nH]c5c4)ccc2-3)[nH]1)C(C)C
condition not met
2. CC(C)N1CCN(c2ccc(OC[C@@H]3CO[C@@](Cn4cncn4)(c4ccc(Cl)cc4Cl)O3)cc2)CC1
condition met
3. Cc1cc(C)c(NC(=O)N(Cc2ccc3c(c2)Cc2ccccc2-3)C2CCCCCC2)c(C)c1
condition met

Hi there! Is % viability for Cc1[nH]c2ccccc2c1C[C@@H](NC(=O)[C@@H](N)Cc1cnc[nH]1)C(=O)N[C@@H](C)C(=O)N[C@@H](Cc1c[nH]c2ccccc12)C(=O)N[C@H](Cc1ccccc1)C(=O)N[C@@H](CCCCN)C(N)=O [ONC0005614, examorelin] (H-H[dTrp(2-Me)]AW[dF]K-NH2) below 70%, do you know?
condition met

Hi there! Is % viability for "O=C(c1ccc(Cl)cc1)N(Cc1ccccc1)C1CCCCC1" below 70%, do you know?
condition met

Hi there! Is % viability for CCNC(=O)N1CCN(CCCC(c2ccc(F)cc2)c2ccc(F)cc2)CC1 [ONC0003498, amperozidehcl] below 70%, do you know?
condition met

Hi there! Is % viability for "COc1cc(O)c2c(c1)C(=O)c1cc(C)cc(O)c1C2=O" below 70%, do you know?
condition met

Hi there! Is % viability for "FC(F)(F)Oc1ccc2[nH]c(-c3ccc(OCCOCCOc4ccc(-c5nc6cc(OC(F)(F)F)ccc6[nH]5)nc4)cn3)nc2c1" below 70%, do you know?
condition not met

Hi there! Is % viability for O=P(O)(O)C(O)(Cc1cnc2ccccn12)P(=O)(O)O [ONC0000278, minodronic acid hydrate] below 70%, do you know?
condition not met

Hi there! Is % viability for CC12CCC(C(Br)C1=O)C2(C)C (centres unmarked) below 70%, do you know?
condition not met

Hi there! Is % viability for "COc1cc(N2CCN(C(C)=O)CC2)ccc1Nc1ncc(Cl)c(Nc2ccc(N3CCN(C(C)=O)CC3)cc2OC)n1" below 70%, do you know?
condition not met

Hi there! Is % viability for CCCCCCOc1nsnc1C1=CCCN(C)C1.O=C(O)C(=O)O [ONC0001841, xanomeline oxalate] below 70%, do you know?
condition not met

Hi there! Is % viability for "O=C(O)c1ccc(OCCn2ccnc2)cc1" below 70%, do you know?
condition not met

Hi there! Is % viability for "O=C(Nc1ccc(Cl)cc1)Nc1ccc(Cl)c(Cl)c1" below 70%, do you know?
condition not met

Hi there! Is % viability for "Cc1cc(O)c2c(c1)C(=O)c1cccc(O)c1C2=O" below 70%, do you know?
condition not met
